Entries and their drug sensitivity score
system: S462; assay: drug sensitivity score (DSS, CellTiter-Glo viability, 72 h) (DSS (dimensionless)); higher = more sensitive; extreme values may be limits of the assay
Please state the value as a number alone, without comment.

See these solved cases before continuing.
| COMPOUND | MEASURED_METRIC | RESULT |
| --- | --- | --- |
| Nc1nccc(-c2c(-c3ccc(F)cc3)ncn2C2CCCCC2)n1 (max concentration tested 10000 nM) | drug sensitivity score | 0 |
| NC1(c2ccc(-c3nc4ccn5c(=O)[nH]nc5c4cc3-c3ccccc3)cc2)CCC1 [MK-2206] (max concentration tested 1000 nM) | drug sensitivity score | 0.275 |
| COc1cccc2cc(-c3nc([C@H]4CC[C@H](C(=O)O)CC4)n4ncnc(N)c34)[nH]c12 [OSI-027] (max concentration tested 10000 nM) | drug sensitivity score | 7.41 |
| O=C(O)CCCCC(CCSCc1ccccc1)SCc1ccccc1 (stereo unspecified) [CPI-613] (max concentration tested 10000 nM) | drug sensitivity score | 0 |
| CCCCCCCCCCCCCCCCCCOP(=O)([O-])OC1CC[N+](C)(C)CC1 [Perifosine aq/PBS] (max concentration tested 2500 nM) | drug sensitivity score | 0.0036 |

What does the record list as drug sensitivity score for CC1(C)CCC(c2ccc(Cl)cc2)=C(CN2CCN(c3ccc(C(=O)NS(=O)(=O)c4ccc(N[C@H](CCN5CCOCC5)CSc5ccccc5)c(S(=O)(=O)C(F)(F)F)c4)cc3)CC2)C1 [Navitoclax] (max concentration tested 10000 nM) ?
0.978

What does the record list as drug sensitivity score for CN(C)C[C@@H]1CCn2cc(c3ccccc32)C2=C(C(=O)NC2=O)c2cn(c3ccccc23)CCO1 [Ruboxistaurin] (max concentration tested 10000 nM) ?
6.12

What does the record list as drug sensitivity score for CC[C@@H]1C(=O)N(C)c2cnc(Nc3ccc(C(=O)N[C@H]4CC[C@H](N5CCN(CC6CC6)CC5)CC4)cc3OC)nc2N1C(C)C [Volasertib] (max concentration tested 1000 nM) ?
21.2
